- Species: Xenopus laevis
- test.method.notes: Agonist activity at melatonin receptor in Xenopus laevis melanophores assessed as effect on pigment granule distribution at 100 uM relative to melatonin
- Assay type: functional
parameter.measured: Activity (%)

{"columns": ["item.smiles", "unit.abbreviation", "Activity"],
 "data": [
  ["COc1ccc2[nH]c(CCCN=C=S)cc2c1", "%", 41],
  ["S=C=NCCCn1ccc2ccccc21", "%", 28],
  ["S=C=NCCCc1cc2ccccc2[nH]1", "%", 38],
  ["S=C=NCCCc1c[nH]c2ccccc12", "%", 31]
]}

---

- test.method.notes: Antagonist activity at melatonin receptor in Xenopus laevis melanophores assessed as reduction of melatonin-induced pigment aggregation
- Assay type: functional
parameter.measured: Log IC50

{"columns": ["item.smiles", "result.value"],
 "data": [
  ["[N-]=[N+]=NCCCc1cc2ccccc2[nH]1", -4.72],
  ["COc1ccc2[nH]cc(CCN=C=S)c2c1", -5.47],
  ["COc1ccc2c(ccn2CCCN=[N+]=[N-])c1", -4.81],
  ["COc1ccc2[nH]c(CCCN=C=S)cc2c1", -4.47],
  ["S=C=NCCCn1ccc2ccccc21", -4.04],
  ["[N-]=[N+]=NCCCn1ccc2ccccc21", -4.82],
  ["COc1ccc2[nH]cc(CCN=[N+]=[N-])c2c1", -5.09],
  ["S=C=NCCCc1c[nH]c2ccccc12", -3.92],
  ["CC(=O)NCCc1c(Cc2ccccc2)[nH]c2ccccc12", -5.61],
  ["[N-]=[N+]=NCCCc1c[nH]c2ccccc12", -4.79],
  ["S=C=NCCCc1cc2ccccc2[nH]1", -4.35],
  ["COc1ccc2[nH]cc(CCCN=C=S)c2c1", -4.49],
  ["COc1ccc2[nH]c(CCCN=[N+]=[N-])cc2c1", -4.15],
  ["COc1ccc2c(ccn2CCCN=C=S)c1", -4.91],
  ["COc1ccc2[nH]cc(CCCN=[N+]=[N-])c2c1", -5.03]
]}
